- SYSTEM TESTED: human D2R/β-arrestin (Homo sapiens (Human), UniProt P14416)
- Sequence (P14416 whole entry): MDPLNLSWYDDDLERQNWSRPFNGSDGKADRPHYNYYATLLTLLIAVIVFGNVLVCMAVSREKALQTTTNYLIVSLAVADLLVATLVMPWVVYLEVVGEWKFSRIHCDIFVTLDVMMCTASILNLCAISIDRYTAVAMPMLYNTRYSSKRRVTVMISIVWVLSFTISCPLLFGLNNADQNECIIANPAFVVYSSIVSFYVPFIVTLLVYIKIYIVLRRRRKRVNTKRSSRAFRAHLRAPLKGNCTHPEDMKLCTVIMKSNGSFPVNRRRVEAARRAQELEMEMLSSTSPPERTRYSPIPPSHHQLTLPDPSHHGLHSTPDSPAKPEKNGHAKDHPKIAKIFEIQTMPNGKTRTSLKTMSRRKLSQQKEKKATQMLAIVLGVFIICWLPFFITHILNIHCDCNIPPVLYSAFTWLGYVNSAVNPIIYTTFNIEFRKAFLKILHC
- MEASUREMENT NOTES: cell-based
- TEST SETTINGS: β-arrestin Antagonist, CHO-K1 cell line expressing human D2R/β-arrestin; quinpirole used as agonist
pIC50: −log10 of the molar value.

# COMPOUND, pIC50
data = [
    ("COc1cccc(C(NC(=O)C2CCN(CCOc3ccccc3)CC2)c2ccccn2)c1 (stereo not shown)", "5.00 to 6.00"),
    ("COc1cccc(C(c2ccccn2)N(C)CC2CCN(CCOc3ccccc3F)CC2)c1 (single isomer, unassigned) [Compound 77b]", "5.00 to 6.00"),
    ("COc1cccc(C(NC(=O)C2CCN(CCOc3ccc(F)cc3F)CC2)c2ccccn2)c1 (single isomer, unassigned) [Compound 145a]", "4.52 to 5.00"),
    ("O=C(NC(c1ccc(Cl)cc1)c1ccccn1)C1CCN(CCCCOc2ccccc2)CC1 (stereo not shown)", "5.00 to 6.00"),
    ("COc1cccc(C(NCC2CCN(CCOc3ccccc3)CC2)c2ccccn2)c1 (stereo not shown)", "5.00 to 6.00"),
    ("Fc1ccc(OCCN2CCC(CNC(c3ccc(Cl)cc3)c3ccccn3)CC2)cc1 (stereo not shown)", "5.00 to 6.00"),
    ("CN(CC1CCN(CCOc2ccccc2F)CC1)C(c1ccc(Cl)cc1)c1ccccn1 (stereo not shown) [Compound 72]", "> 7.00"),
    ("CN(CC1CCN(CCOc2ccccc2F)CC1)C(c1ccc2c(c1)OCO2)c1ccccn1 (single isomer, unassigned) [Compound 138a]", "6.00 to 7.00"),
    ("CC(C1CCN(CCOc2ccccc2)CC1)N(C)C(c1ccc(Cl)cc1)c1ccccn1 (single isomer, unassigned) [Compound 97d]", "6.00 to 7.00"),
    ("COc1ccc(C(NC(=O)C2CCN(CCOc3ccccc3)CC2)c2ccccn2)cc1 (stereo not shown)", "5.00 to 6.00"),
    ("CC(C)N(CC1CCN(CCOc2ccc(F)cc2)CC1)C(c1ccc(Cl)cc1)c1ccccn1 (stereo not shown)", "5.00 to 6.00"),
    ("CN(CC1CCN(CCOc2ccccc2)CC1)C(c1ccc(Cl)cc1)c1ccccn1 (single isomer, unassigned) [Compound 79a]", "5.00 to 6.00"),
    ("O=C(NC(c1ccc(Cl)cc1)c1ccccn1)C1CCN(CCOc2cccnc2)CC1 (stereo not shown)", "4.52 to 5.00"),
    ("O=C(NC(c1ccccc1)c1ccc(Cl)cc1)C1CCN(CCOc2ccccc2)CC1 (stereo not shown)", "6.00 to 7.00"),
    ("O=C(NC(c1ccc2c(c1)OCO2)c1ccccn1)C1CCN(CCOc2ccccc2F)CC1 (stereo not shown)", "6.00 to 7.00"),
    ("CC(C)(COc1ccccc1)N1CCC(C(=O)NC(c2ccc(F)cc2)c2ccccn2)CC1 (stereo not shown)", "4.52 to 5.00"),
]

====

- SYSTEM TESTED: human D2R/β-arrestin (Homo sapiens (Human), UniProt P14416)
- MEASUREMENT NOTES: Gi/cAMP agonist assay (Lance Ultra cAMP, Forskolin)
- Format: cell-based
- TEST SETTINGS: CHO-K1 cell line expressing human D2R/β-arrestin
Parameter: EC50. Scope: all listed entries.
ENDPOINT NAME: EC50

# COMPOUND, READOUT VALUE
rows = [
    ("O=C(NC(c1ccc(Cl)cc1)c1ccccn1)C1CCN(CCOc2ccccc2C(F)(F)F)CC1 (single isomer, unassigned) [Compound 6b]", "> 30 µM"),
    ("COc1cccc(C(NC(=O)C2CCN(CCOc3ccccc3F)CC2)c2ccccn2)c1 (stereo not drawn) [Compound 22]", "> 30 µM"),
    ("O=C(NC(c1ccc(Cl)cc1)c1ccncc1F)C1CCN(CCOc2ccccc2F)CC1 (stereo not drawn) [Compound 91]", "0.1 to 1 µM"),
    ("Fc1ccccc1C(NCC1CCN(CCOc2ccccc2)CC1)c1ccc(Cl)cc1 (stereo not drawn) [Compound 81]", "> 30 µM"),
    ("Fc1ccc(F)c(OCCN2CCC(CNC(c3ccc(Cl)cc3)c3ccccn3)CC2)c1 (stereo not drawn) [Compound 89]", "> 30 µM"),
    ("Clc1ccc(C(NCC2CCN(CCOc3ccccc3)CC2)c2ccccn2)cc1 (single isomer, unassigned) [Compound 114a]", "0.1 to 1 µM"),
    ("COc1ccccc1OCCN1CCC(C(=O)NCc2nccc3ccccc23)CC1 [Compound 108]", "< 0.1 µM"),
    ("O=C(NC(c1ccccn1)c1ccccn1)C1CCN(CCOc2ccccc2)CC1 [Compound 30]", "1 to 10 µM"),
    ("O=C(NC(c1ccc(Cl)cc1)c1ccccn1)C1CCN(CCOc2ccc3cccnc3c2)CC1 (stereo not drawn) [Compound 16]", "< 0.1 µM"),
    ("O=C(NC(c1ccc(Cl)cc1)c1ccccn1)C1CCN(CCOC2CCCCC2)CC1 (stereo not drawn) [Compound 17]", "> 30 µM"),
    ("O=C(NC(c1cccc(Cl)c1)c1ccccn1)C1CCN(CCOc2ccccc2)CC1 (stereo not drawn) [Compound 23]", "> 30 µM"),
    ("O=C(NC(c1ccc(Cl)cc1)c1ccc(F)cn1)C1CCN(CCOc2ccccc2F)CC1 (single isomer, unassigned) [Compound 92b]", "10 to 30 µM"),
    ("O=C(NC(c1ccc2c(c1)OC(F)(F)O2)c1ccccn1)C1CCN(CCOc2ccc(F)cc2F)CC1 (stereo not drawn) [Compound 130]", "< 0.1 µM"),
    ("O=C(NC(c1ccc(Cl)cc1)c1ccccn1)C1CCN(CCOc2ccc(F)cc2F)CC1 (stereo not drawn) [Compound 115]", "0.1 to 1 µM"),
    ("O=C(NC(c1ccc(F)cc1)c1ccccn1)C1CCN(CCOc2ccc3ncsc3c2)CC1 (stereo not drawn) [Compound 55]", "> 30 µM"),
    ("O=C(NC(c1ccc(F)cc1)c1ccccn1)C1CCN(CCOc2ccccc2F)CC1 (stereo not drawn) [Compound 54]", "> 30 µM"),
    ("O=C(NC(c1ccc2c(c1)OC(F)(F)O2)c1ccccn1)C1CCN(CCOc2ccccc2)CC1 (stereo not drawn) [Compound 119]", "< 0.1 µM"),
    ("COc1cccc(C(NC(=O)C2CCN(CCOc3ccccc3)CC2)c2ccccc2F)c1 (stereo not drawn) [Compound 50]", "0.1 to 1 µM"),
    ("CC1(CNC(c2ccc(F)cc2)c2ccccn2)CCN(CCOc2ccccc2C(F)(F)F)CC1 (single isomer, unassigned) [Compound 101a]", "> 30 µM"),
    ("O=C(NC(c1ccc(Cl)cc1)c1ccccc1F)C1CCN(CCOc2ccccc2)CC1 (stereo not drawn) [Compound 40]", "> 30 µM"),
    ("Clc1ccc(C(c2ccccn2)N2CCC3(CCN(CCOc4ccccc4)CC3)C2)cc1 (single isomer, unassigned) [Compound 105a]", "< 0.1 µM"),
    ("Clc1cccc(C2CCN(CCCOc3ccc4scnc4c3)CC2)c1Cl [UNC9994, reference compound]", "< 0.1 µM"),
    ("Clc1ccc(C(c2ccccn2)N2CC3(CCN(CCOc4ccccc4)CC3)C2)cc1 (stereo not drawn) [Compound 104]", "1 to 10 µM"),
    ("O=C(NC(c1ccc(Cl)cc1)c1ccccn1)C1CCN(CCOc2ccccc2F)CC1 (single isomer, unassigned) [Compound 3a]", "> 30 µM"),
    ("O=C(NC(c1ccc(Cl)cc1)c1ccccn1)C1CCN(CCOc2cccc(F)c2)CC1 (single isomer, unassigned) [Compound 4a]", "0.1 to 1 µM"),
    ("O=C(NC(c1ccc(F)cc1)c1ccccn1)C1CCN(CCOc2ccccc2Cl)CC1 (single isomer, unassigned) [Compound 53a]", "> 30 µM"),
    ("O=C(NC(c1ccncc1)c1ccc(Cl)cc1)C1CCN(CCOc2ccccc2)CC1 (stereo not drawn) [Compound 112]", "< 0.1 µM"),
    ("O=C(NC(c1cccc(OC(F)(F)F)c1)c1ccccn1)C1CCN(CCOc2ccccc2)CC1 (single isomer, unassigned) [Compound 118a]", "10 to 30 µM"),
    ("O=C(NC(c1ccc(Cl)cc1)c1ccccn1)C1CCN(CCCOc2ccccc2)CC1 (stereo not drawn) [Compound 62]", "> 30 µM"),
    ("O=C(NC(c1ccc(Cl)cc1)c1ccccc1F)C1CCN(CCOc2ccccc2)CC1 (single isomer, unassigned) [Compound 40a]", "> 30 µM"),
]

====

- System: plasma protein
- MEASUREMENT NOTES: Plasma protein binding, human
- Type: in vitro ADME
- TEST SETTINGS: plasma, read-out: Plasma Protein Binding % bound
ENDPOINT NAME: fraction unbound

# COMPOUND, SYSTEM TESTED, READOUT VALUE
data = [
    ("O=C(NC(c1ccc(F)cc1)c1ccccn1)C1CCN(CCOc2ccccc2)CC1 (stereo not shown)", "plasma protein", 0.08),
    ("O=C(NC(c1ccccc1)c1ccc(F)cc1)C1CCN(CCOc2ccccc2)CC1 (stereo not shown)", "plasma protein", 0.017),
    ("O=C(NC(c1ccc(Cl)cc1)c1ccccn1)C1CCN(CCOc2ccccc2F)CC1 (stereo not shown)", "plasma protein", 0.246),
    ("O=C(NC(c1ccccc1)c1ccc(Cl)cc1)C1CCN(CCOc2ccccc2)CC1 (stereo not shown)", "plasma protein", 0.021),
]
